B1: HDV Ribozyme (parent)
chain: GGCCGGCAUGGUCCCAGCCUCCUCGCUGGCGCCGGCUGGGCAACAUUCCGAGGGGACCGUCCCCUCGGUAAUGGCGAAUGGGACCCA

Variants of: B1
METHOD_SUMMARY: self-cleavage, relative activity (ratio to wild type); higher = more cleavage; co-transcriptional
Overview of recorded self-cleavage for various variants

Which self-cleavage reading was recorded for the variant GGCCGGCAUGGUCCCAGCCUCCUCGCUGGCGCCGGCUGGGCAACAUUCCGAGGGGACCGUCCCCUGGGUAAUGGCGAAUGGGACCAA ? 0.984

Item under review: GGCCGGCAUGGUCCCAGCCUCCUCGCUGGCGCCGGCUGGGCAACAUUCCGAGGGGUCCGUCCCCUCGGUAAUGGUGAAUGGGACCCA . Reported self-cleavage? 0.237

Tell me the measured self-cleavage of GGCAGGCAUGGUCCCAGCCUCUUCGCUGGCGCCGGCUGGGCAACAUUCCGAGGGGACCGUCCCCUCGGUAAUGGCGAAUGGGACCCA , please. 0.148

Can you look up the measured self-cleavage of GGCCGGCAUGGUCCGAGCCUCCUCGCUGGCGCCGGCUGGGCAACAUUCCGAGGGGACCGUCCUCUCGGUAAUGGCGAAUGGGACCCA for me? 0.394

Please give the measured self-cleavage for this variant: GGCCGGCAUGGUCCCAGCCACCUCGCUGGCGCCGGCUGGGCAACAUUCCGAUGGGACCGUCCCCUCGGUAAUGGCGAAUGGGACCCA 0.0462

More entries:
For GGCCGGCAUGGUCCCAGGCUCCUCGCUGGCGCCGGCUGGGCAACAUUCCGAGGGGACCGUCCCCUCGGUAGUGGCGAAUGGGACCCA , what is its reported self-cleavage? 0

Looking for the measured self-cleavage of GGCCGGCAUGGUCCCAGCCUCCUGGCUGGCGCCGGCUGGGCAACAUUCCGAGGGGACCGUCCCCUCGGUAAUGGCGAAUUGGACCCA , can you help? 0.0746

Form field: reported self-cleavage of GGCCGGCAUGGUCCCAGCCUCCUCGCUGGCGCCGGCUGGGCAACAUUCCGAGGGGACCGUCCCCUCGGUUAUGGCGAAUGGGGCCCA 0.902

What value of self-cleavage has been recorded for this entry: GGCCGGCAUGGUCCCAGCCUCCUCGCUGGCGCCGGCGGGGCAACAUUCCGAGGGGACCGUCCCCUCGGUAAUGGCAAAUGGGACCCA 0.185

Look at this variant and give its reported self-cleavage. GGCCGACAUGGUCCCAGCCUCCUCGCUGGCGCCGGCUGGGCAACAUUCCGAGGGGACCGUCCCCUCGGUAAUCGCGAAUGGGACCCA 0.312

May I ask what self-cleavage has been recorded for GGCCGGCAUGGUCCCAGCCUCCUCGCUGGCGCCGGCUGGGCAACAUUCCGAGGUGACCGUCCCCACGGUAAUGGCGAAUGGGACCCA ? 0.513

Entry GGCCGGCAUGGCCCCAGCCUCGUCGCUGGCGCCGGCUGGGCAACAUUCCGAGGGGACCGUCCCCUCGGUAAUGGCGAAUGGGACCCA : reported self-cleavage = ? 0

GET /values?readout=self-cleavage&item= GGCCGGCAUGGUCCCAGCCUCCUCGCUGGCGCCGGCUGGGCAACAUUCCGAGGGGACCGUCCCCUCUGUAAUGGCGAAUGGGAUCCA 0.771

Given the entry GGCCAGCAUGGUCCCAGCCUCCUCGCUGGCGCCGGCUGGGCAACAUUCCAAGGGGACCGUCCCCUCGGUAAUGGCGAAUGGGACCCA , report its measured self-cleavage. 0.192

// lookup self-cleavage for GGCCGGCAUGGUCCCAGCCUCCUCCCUGGCGCCGGCUGGGCAACAUUCCGAGGGGACCGUCCCCUCGGUAAUGGAGAAUGGGACCCA 0

Which value of self-cleavage has been reported for GGCCGGCAUGGUCCCAGCCUCCUAGCUGGCGCCGGCUGGGCAACAUUCCGAGGGUACCGUCCCCUCGGUAAUGGCGAAUGGGACCCA in the records? 0.908
